- System: NEU1, MTOR, MYC, IGF1R, VEGFA, RB1 in MDA-MB-231 cells
- ASSAY_COMMENT: mRNA of validated miRNA target genes (transfection control) in MDA-MB-231 cells
- Type: cell-based, human
- COND: VEGFA or RB1 as named for each agent, 48 h after transfection
REPORTED_METRIC: mRNA levels of the validated miRNA target

{"columns": ["SUBSTANCE", "ASSAYED_SYSTEM", "RESULT"],
 "data": [
  ["miR-206 anti-miR: Anti-miR, CACACACUUCCUUACAUUCC, SEQ ID NO: 7 (listed as RNA, chemistry not given here)", "NEU1, MTOR, MYC, IGF1R, VEGFA, RB1 in MDA-MB-231 cells", "changed"],
  ["miR-99a mimic: miRNA mimic, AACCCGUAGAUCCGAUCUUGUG, SEQ ID NO: 3 (listed as RNA, chemistry not given here)", "NEU1, MTOR, MYC, IGF1R, VEGFA, RB1 in MDA-MB-231 cells", "changed"],
  ["miR-744 mimic: miRNA mimic, CUGUUGCCACUAACCUCAACCU, SEQ ID NO: 4 (listed as RNA, chemistry not given here)", "NEU1, MTOR, MYC, IGF1R, VEGFA, RB1 in MDA-MB-231 cells", "changed"]
]}

====

- Test system: NEU1, MTOR, MYC, IGF1R, VEGFA, RB1 in MDA-MB-231 cells
- ASSAY_COMMENT: mRNA of validated miRNA target genes (transfection control) in MDA-MB-231 cells
- Format: cell-based, human
- COND: VEGFA or RB1 as named for each agent, 48 h after transfection
REPORTED_METRIC: mRNA levels of the validated miRNA target

{"columns": ["SUBSTANCE", "ASSAYED_SYSTEM", "RESULT"],
 "data": [
  ["miR-511 mimic: miRNA mimic, AAUGUGUAGCAAAAGACAGA, SEQ ID NO: 2 (listed as RNA, chemistry not given here)", "NEU1, MTOR, MYC, IGF1R, VEGFA, RB1 in MDA-MB-231 cells", "changed"],
  ["miR-599 anti-miR: Anti-miR, GUUUGAUAAACUGACACAAC, SEQ ID NO: 6 (listed as RNA, chemistry not given here)", "NEU1, MTOR, MYC, IGF1R, VEGFA, RB1 in MDA-MB-231 cells", "changed"],
  ["miR-26b anti-miR: Anti-miR, CUAUCCUGAAUUACUUGA, SEQ ID NO: 8 (listed as RNA, chemistry not given here)", "NEU1, MTOR, MYC, IGF1R, VEGFA, RB1 in MDA-MB-231 cells", "changed"]
]}

====

- System: CD34+ cells
- ASSAY_COMMENT: qRT-PCR of PD-L1, CXCR4 and IDO-1 in prostaglandin-modulated CD34+ cells
- Format: cell-based, human
- COND: CD34+ cells upon modulation
REPORTED_METRIC: PD-L1 mRNA expression by RT-PCR

{"columns": ["SMILES_RECORD", "ASSAYED_SYSTEM", "REPORTED_METRIC", "RESULT"],
 "data": [
  ["CCCCC(C)(C)[C@H](O)/C=C/[C@H]1[C@H](O)CC(=O)[C@@H]1C/C=C\\CCCC(=O)Oc1ccc(NC(=O)c2ccc(NC(C)=O)cc2)cc1", "CD34+ cells", "PD-L1 mRNA expression by RT-PCR", "marked upregulation"],
  ["CCCCC(C)(C)[C@H](O)/C=C/[C@H]1[C@H](O)CC(=O)[C@@H]1C/C=C\\CCCC(=O)O", "CD34+ cells", "PD-L1 mRNA expression by RT-PCR", "marked upregulation"],
  ["CCCCCCC[C@H](O)/C=C/[C@H]1[C@H](O)CC(=O)[C@@H]1C/C=C\\CCCC(=O)O", "CD34+ cells", "PD-L1 mRNA expression by RT-PCR", "marked upregulation"]
]}
